In this section we review reported Euclidean distance values for a set of molecules.
- System: DU145
- assay explanation: Euclidean distance of Cell Painting phenotypic profile (signed KS, 77 features) to DMSO centroid (dimensionless distance); 5 or 10 uM (library dependent); higher = stronger phenotypic change vs DMSO (phenoactivity)
- test parameters: 48 h
Output spec: single numeric token, no unit.

molecule | target of assay | Euclidean distance
O=c1ccc2ccc(OCCCCN3CCN(c4cccc5sccc45)CC3)cc2[nH]1 | DU145 | 2.84
NCCc1c[nH]cn1 [Histamine] | DU145 | 1.33
Cc1cc(Nc2ncc(Cl)c(Nc3ccccc3S(=O)(=O)C(C)C)n2)c(OC(C)C)cc1C1CCNCC1 | DU145 | 7.35

For `CCOC(=O)CCNc1cc(N2CCc3ccccc3CC2)nc(-c2ccccn2)n1` , what is its reported Euclidean distance?
2.35

I would be grateful if you could share the reported Euclidean distance for `CCN1/C(=C/C(C)=O)Sc2ccc(OC)cc21` .
1.03

Please report the recorded Euclidean distance for `NNC(=O)c1ccncc1` .
0.961

---

List of Euclidean distance values.
- Test system: OVCAR4
- assay explanation: Euclidean distance of Cell Painting phenotypic profile (signed KS, 77 features) to DMSO centroid (dimensionless distance); 5 or 10 uM (library dependent); higher = stronger phenotypic change vs DMSO (phenoactivity)
- test parameters: 48 h
Just the number.

Below, each entry is followed by its recorded Euclidean distance result.
compound | target of assay | result
CCS(=O)(=O)N1CC(CC#N)(n2cc(-c3ncnc4[nH]ccc34)cn2)C1 [Baricitinib phosphate] | OVCAR4 | 0.981
CNC[C@H](O)c1ccc(O)c(O)c1 [Epinephrine bitartrate] | OVCAR4 | 0.577
Cc1nc(=O)c2cc(CN(C)c3ccc(C(=O)N[C@@H](CCC(=O)O)C(=O)O)s3)ccc2[nH]1 | OVCAR4 | 2.76
CC[N+](CC)(CC)CCOc1cccc(OCC[N+](CC)(CC)CC)c1OCC[N+](CC)(CC)CC [Gallamine Triethiodide] | OVCAR4 | 1.04
CC(C)NC[C@@H](C(=O)N1CCN(c2ncnc3c2[C@H](C)C[C@H]3O)CC1)c1ccc(Cl)cc1 [Ipatasertib (GDC-0068)] | OVCAR4 | 2.11

Any idea what its Euclidean distance is? The compound is `C=CCNC(N)=S`
1.54

Using the record for COc1ccc2cc([C@H](C)C(=O)O)ccc2c1 [Naproxen Sodium] , report its Euclidean distance.
0.977

Given the compound CCCCCN(C)CCC(O)(P(=O)(O)O)P(=O)(O)O [Ibandronate sodium] , what is its reported Euclidean distance?
1.49

Recorded Euclidean distance for `C[C@]12CCC(=O)C=C1C=C[C@@H]1[C@@H]2CC[C@@]2(C)[C@H]1CC[C@@]21CCC(=O)O1` , please?
1.05

---

Listed here: items and their measured Euclidean distance.
- System: FB
- assay explanation: Euclidean distance of Cell Painting phenotypic profile (signed KS, 77 features) to DMSO centroid (dimensionless distance); 5 or 10 uM (library dependent); higher = stronger phenotypic change vs DMSO (phenoactivity)
- test parameters: 48 h
Where a name gives a salt, the structure may show the parent alone.
# print the numeric value only

Below, each entry is followed by its recorded Euclidean distance result.
compound | target of assay | Euclidean distance
CCS(=O)(=O)N1CC(CC#N)(n2cc(-c3ncnc4[nH]ccc34)cn2)C1 [Baricitinib phosphate] | FB | 1.55
CO[C@@H](C(=O)N1Cc2[nH]nc(NC(=O)c3ccc(N4CCN(C)CC4)cc3)c2C1)c1ccccc1 | FB | 1.66
CN(C)CCOC(c1ccc(Cl)cc1)c1ccccn1 (configuration not stated) [CarbinoxaMine Maleate] | FB | 1.44
COC(=O)C1=C(C)NC(C)=C(C(=O)OCCN(C)Cc2ccccc2)C1c1cccc([N+](=O)[O-])c1 (configuration not stated) [Nicardipine HCl] | FB | 0.903
Nc1nccc(Oc2ccc(NC(=O)c3c[nH]cc(-c4ccc(F)cc4)c3=O)cc2F)c1Cl | FB | 1.94
CCCC1CC(C(=O)NC(C(C)Cl)C2OC(SC)C(O)C(O)C2O)N(C)C1 (configuration not stated) [Clindamycin alcoholate] | FB | 0.986
CS(=O)(=O)N1CCN(Cc2cc3nc(-c4cccc5[nH]ncc45)nc(N4CCOCC4)c3s2)CC1 | FB | 2.18
CN(C)c1cc(CNCC(C)(C)C)c(O)c2c1C[C@H]1C[C@H]3[C@H](N(C)C)C(O)=C(C(N)=O)C(=O)[C@@]3(O)C(O)=C1C2=O [Omadacycline tosylate] | FB | 1.14
CCOC(=O)[C@H](CCc1ccccc1)N[C@@H](C)C(=O)N1Cc2ccccc2C[C@H]1C(=O)O [Quinapril HCl] | FB | 1.09
CC(C)Oc1ccc(-c2nc(-c3cccc4c3CC[C@@H]4NCCO)no2)cc1C#N [Ozanimod (RPC1063)] | FB | 1.6

May I ask what Euclidean distance has been recorded for C[C@]1(c2nc3c(C(N)=O)cccc3[nH]2)CCCN1 [Veliparib (ABT-888)] ?
1.35

So what's the measured Euclidean distance for this one? CCN(CC)C(=O)/C(C#N)=C/c1cc(O)c(O)c([N+](=O)[O-])c1 [Entacapone]
1.1

Given CCOC(=O)[C@H](CCc1ccccc1)N[C@H]1CCc2ccccc2N(CC(=O)O)C1=O [Benazepril] , state its recorded Euclidean distance.
0.851

For CCC(=O)NS(=O)(=O)c1ccc(-c2c(-c3ccccc3)noc2C)cc1 [Parecoxib] , what is its reported Euclidean distance?
1.11

Reported Euclidean distance for `CC(C)N1CCN(Cc2cnc(-c3cc(-c4cccc5[nH]ccc45)cc4[nH]ncc34)o2)CC1` : what is it?
3.33

Would you mind telling me what Euclidean distance value was observed for C[C@H]1NCc2cc(-c3ccc4c(=O)c(C(=O)O)cn(C5CC5)c4c3OC(F)F)ccc21 [Garenoxacin] ?
1.54

For CC(C)NNC(=O)c1ccncc1 [Iproniazid] , what is its reported Euclidean distance?
1.08

Can you share its Euclidean distance? I mean this compound: `CNS(=O)(=O)C[C@H]1CC[C@H](N(C)c2[nH]cnc3nccc2-3)CC1`
1.3

---

Reported Euclidean distance values for the following molecules.
- System: OVCAR4
- assay explanation: Euclidean distance of Cell Painting phenotypic profile (signed KS, 77 features) to DMSO centroid (dimensionless distance); 5 or 10 uM (library dependent); higher = stronger phenotypic change vs DMSO (phenoactivity)
- test parameters: 48 h
# answer = number (no unit)

molecule | Euclidean distance
C[C@](N)(Cc1ccc(O)c(O)c1)C(=O)O | 0.729

Test system OVCAR4; read-out Euclidean distance; what value for `C[C@]12C[C@H](O)[C@H]3[C@@H](CCC4=CC(=O)CC[C@@]43C)[C@@H]1CC[C@@H]2C(=O)CO` ?
1.04

Query Euclidean distance on OVCAR4 for O=C(CCCCCCC(=O)Nc1ccccc1)NO [Vorinostat (SAHA. MK0683)]
2.85

Requested read-out Euclidean distance, target or system OVCAR4, entry C[N+]1(C)[C@@H]2CC[C@H]1C[C@@H](OC(=O)C(O)c1ccccc1)C2 (some centres undefined) [Homatropine Methylbromide]
0.995

---

The entries below come with measured Euclidean distance values attached.
- Tested on: HEPG2
- assay explanation: Euclidean distance of Cell Painting phenotypic profile (signed KS, 77 features) to DMSO centroid (dimensionless distance); 5 or 10 uM (library dependent); higher = stronger phenotypic change vs DMSO (phenoactivity)
- test parameters: 48 h
Structures can show the parent of a compound that is named as a salt.

compound | Euclidean distance
COC(=O)C1=C(C#N)NC(C)=C(C(=O)OC(C)C)C1c1cccc([N+](=O)[O-])c1 (configuration not stated) [Nilvadipine] | 0.907
CCCC(=O)O[C@]1(C(=O)COC(C)=O)CC[C@H]2[C@@H]3C[C@H](F)C4=CC(=O)C=C[C@]4(C)[C@@]3(F)[C@@H](O)C[C@@]21C [Difluprednate] | 0.695
OC[C@H]1O[C@@H](c2ccc(F)c(Cc3cc4ccccc4s3)c2)[C@H](O)[C@@H](O)[C@@H]1O [Ipragliflozin (ASP1941)] | 0.412
O=C(CCCN1CCN(c2ccccn2)CC1)c1ccc(F)cc1 [Azaperone] | 0.758
NC(=O)c1noc([C@H](CCCC2CCCCC2)CC(=O)NO)n1 | 0.93
CCOC(=O)c1ncn2c1CN(C)C(=O)c1cc(F)ccc1-2 [Flumazenil] | 0.383
Cc1cc(C)nc(NS(=O)(=O)c2ccc(NC(=S)NC(=O)COc3ccc(Br)cc3Cl)cc2)n1 | 2.1
Nc1nc(N)c2nc(-c3ccccc3)c(N)nc2n1 [Triamterene] | 1.45
Cn1cnc([N+](=O)[O-])c1Sc1ncnc2[nH]cnc12 [Azathioprine] | 2.09
Cc1ncc(CO)c(CO)c1O [Pyridoxine HCl] | 0.426

# Euclidean distance lookup, item Cc1cc(C)c(/C=C2\C(=O)Nc3ccccc32)[nH]1 [Semaxanib (SU5416)]
0.527

Recorded Euclidean distance of O=C(O[C@@H]1Cc2c(O)cc(O)cc2O[C@@H]1c1ccc(O)c(O)c1)c1cc(O)c(O)c(O)c1 [(-)-Epicatechin gallate] , please.
0.724

Could you share which Euclidean distance value was measured for COc1ccnc(C[S+]([O-])c2nc3cc(-n4cccc4)ccc3[nH]2)c1C (configuration not stated) [Ilaprazole] ?
0.928

State the recorded Euclidean distance for this entry: O=C(NCc1ccccc1)c1csc(Nc2ccncn2)n1 [Thiazovivin]
1.84

Euclidean distance for CCN1CCN(Cc2ccc(Nc3ncc(F)c(-c4cc(F)c5nc(C)n(C(C)C)c5c4)n3)nc2)CC1 [Abemaciclib] ?
3.81

Looking for the measured Euclidean distance of CC1(C)S[C@@H]2[C@H](NC(=O)Cc3ccccc3)C(=O)N2[C@H]1C(=O)O [Benzylpenicillin potassium] , can you help?
0.711

Need Euclidean distance of `Cc1ccc(NS(=O)(=O)c2cccc(C#N)c2)c2[nH]cc(C#N)c12` , thanks.
2.04
